assay.name: AUC (0 to infinity) in mouse at 10 mg/kg, po
Format: ADME, organism-based
Parameters: time infinity, dose 10 mg/kg, route oral
settings: plasma

{"compound.smiles": "COc1cc(C(=O)N2CCC(N3CCCC3)CC2)ccc1Nc1ncc2c(n1)N(C)c1ccccc1C(=O)N2C", "value.units": "ng·h/mL", "AUC(0-inf)": 7870}

* * *

Listed here are compounds together with their documented pIC50.
assay.target: Mitogen-activated protein kinase 7 (Homo sapiens, UniProt Q13164)
Sequence (Q13164 whole entry): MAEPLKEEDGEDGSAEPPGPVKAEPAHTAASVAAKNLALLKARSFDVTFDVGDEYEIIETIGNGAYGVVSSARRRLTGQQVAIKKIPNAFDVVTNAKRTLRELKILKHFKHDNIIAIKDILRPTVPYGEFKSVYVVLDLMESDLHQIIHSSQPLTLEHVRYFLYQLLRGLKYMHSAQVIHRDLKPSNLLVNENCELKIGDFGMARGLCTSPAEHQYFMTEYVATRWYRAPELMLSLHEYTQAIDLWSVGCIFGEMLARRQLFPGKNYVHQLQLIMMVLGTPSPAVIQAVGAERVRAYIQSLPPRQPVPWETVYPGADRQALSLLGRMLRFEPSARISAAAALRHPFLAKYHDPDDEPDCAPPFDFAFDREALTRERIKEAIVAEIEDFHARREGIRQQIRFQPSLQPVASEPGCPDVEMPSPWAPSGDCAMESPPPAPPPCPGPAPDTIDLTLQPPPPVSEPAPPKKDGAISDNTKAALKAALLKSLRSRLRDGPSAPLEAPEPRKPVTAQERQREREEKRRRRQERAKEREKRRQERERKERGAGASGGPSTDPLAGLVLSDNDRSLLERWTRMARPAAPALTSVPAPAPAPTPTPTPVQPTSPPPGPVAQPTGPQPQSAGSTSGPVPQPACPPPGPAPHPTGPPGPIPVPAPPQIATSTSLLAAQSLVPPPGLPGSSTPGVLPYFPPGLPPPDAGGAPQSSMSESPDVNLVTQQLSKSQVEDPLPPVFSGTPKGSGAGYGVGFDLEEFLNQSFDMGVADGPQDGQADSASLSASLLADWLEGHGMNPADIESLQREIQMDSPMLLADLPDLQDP
assay.name: Inhibition of EGF-induced BMK1 autophosphorylation in human HeLa cells by SDS-PAGE analysis
pIC50: −log10 of the molar value.

{"compound.smiles": "COc1cc(N2CCN(C)CC2)ccc1Nc1ncc2c(n1)N(C)c1cc(Cl)ccc1C(=O)N2C", "assay.target": "Mitogen-activated protein kinase 7 (Homo sapiens, UniProt Q13164)", "pIC50": 4.94}
{"compound.smiles": "COc1cc(N2CCN(C)CC2)ccc1Nc1ncc2c(n1)N(C)c1cc(F)ccc1C(=O)N2C", "assay.target": "Mitogen-activated protein kinase 7 (Homo sapiens, UniProt Q13164)", "pIC50": 5.88}
{"compound.smiles": "CN1C(=O)c2ccccc2N(C)c2nc(Nc3ccc(S(N)(=O)=O)cc3)ncc21", "assay.target": "Mitogen-activated protein kinase 7 (Homo sapiens, UniProt Q13164)", "pIC50": 6.51}
{"compound.smiles": "COc1cc(N2CCN(C)CC2)ccc1Nc1ncc2c(n1)N(C1CCCC1)c1ccccc1C(=O)N2C", "assay.target": "Mitogen-activated protein kinase 7 (Homo sapiens, UniProt Q13164)", "pIC50": 6.70}
{"compound.smiles": "COc1cc(N2CCN(C)CC2)ccc1Nc1ncc2c(n1)N(C)c1ccc(Cl)cc1C(=O)N2C", "assay.target": "Mitogen-activated protein kinase 7 (Homo sapiens, UniProt Q13164)", "pIC50": 5.91}
{"compound.smiles": "COc1cc(C2CCN(C)CC2)ccc1Nc1ncc2c(n1)N(C)c1ccccc1C(=O)N2C", "assay.target": "Mitogen-activated protein kinase 7 (Homo sapiens, UniProt Q13164)", "pIC50": 6.59}
{"compound.smiles": "COc1cc(C(=O)NCCN(C)C)ccc1Nc1ncc2c(n1)N(C)c1ccccc1C(=O)N2C", "assay.target": "Mitogen-activated protein kinase 7 (Homo sapiens, UniProt Q13164)", "pIC50": 6.62}
